Test system: 100 A. baumannii strains (50 MDR, 50 non-MDR)
ASSAY REMARKS: MIC broth microdilution at IHMA Europe, panel of 100 strains
Assay type: cell-based
TEST PARAMETERS: Acinetobacter baumannii, A. baumannii IHMA 2193485, Venezuela 2020, Non-MDR; read-out: MIC
Reported MIC values for the following compounds.
METRIC NAME: MIC

| MOL SMILES | VALUE OBSERVED |
| --- | --- |
| O=C(O)c1cn(C2CC2)c2cc(N3CCNCC3)c(F)cc2c1=O | ≤ 0.06 µg/mL |
| C[C@@H](O)[C@H]1C(=O)N2C(C(=O)O)=C(SCCNC=N)C[C@H]12 | ≤ 0.25 µg/mL |
| COc1c(N2C[C@@H]3CCCN[C@@H]3C2)c(F)cc2c(=O)c(C(=O)O)cn(C3CC3)c12 | ≤ 0.5 µg/mL |

###

compounds and their reported MIC
System: S. aureus (VISA) ATCC 700699
ASSAY REMARKS: MIC broth microdilution (CLSI)
Format: cell-based
TEST PARAMETERS: Staphylococcus aureus; read-out: MIC

| COMPOUND | TESTED ON | MIC |
| --- | --- | --- |
| Cc1[nH]c(C(=O)Nc2nc3c(N4C[C@H]5CC[C@@H](C4)O5)cc(C(=O)O)cc3s2)c(Cl)c1Cl [7g] | S. aureus (VISA) ATCC 700699 | < 0.0312 µg/mL |
| Cc1[nH]c(C(=O)Nc2nc3c(N4CCC5(CC4)OCCO5)cc(C(=O)O)cc3s2)c(Cl)c1Cl [7r] | S. aureus (VISA) ATCC 700699 | < 0.0312 µg/mL |
| Cc1[nH]c(C(=O)Nc2nc3c(N4CCOCC4C)cc(C(=O)O)cc3s2)c(Cl)c1Cl (centres unmarked) [7b] | S. aureus (VISA) ATCC 700699 | < 0.0312 µg/mL |
| Cc1[nH]c(C(=O)Nc2nc3c(N4CC[S+]([O-])CC4)cc(C(=O)O)cc3s2)c(Cl)c1Cl [7s] | S. aureus (VISA) ATCC 700699 | > 64 µg/mL |
| Cc1[nH]c(C(=O)Nc2nc3c(N4CC(C)OC(C)C4)cc(C(=O)O)cc3s2)c(Cl)c1Cl (centres unmarked) [7f] | S. aureus (VISA) ATCC 700699 | < 0.0312 µg/mL |
